B1: TPR t1 (parent)
chain: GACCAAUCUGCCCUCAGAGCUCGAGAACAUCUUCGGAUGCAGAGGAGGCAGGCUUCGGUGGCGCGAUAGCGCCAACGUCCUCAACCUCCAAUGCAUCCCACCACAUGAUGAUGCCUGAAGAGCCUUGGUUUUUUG

- Variants of: B1
- METHOD: polymerase ribozyme fitness, log enrichment relative to wild type (log ratio); higher = more active; in vitro selection for triplet polymerase activity
polymerase ribozyme fitness (log ratio) values, listed per item
Please state the value as a number alone, without comment.

GACCAAUGGGCCCUCAGAGCUCGAGAACAUCUUCGGAUGCAGAGGAGGCAGGCUUCGGUGGCGCGAUAGCGCGAACGUCCUCAACCUCCAAUGCAUCCCACCACAUGAUGAUGCCUGAAGAGACUUGGUUUUUUG [C8G U9G C73G C123A] ... 1.1
GACCAAUCUGCCCUCAGAGCUCGAGAACAUCUUCGGAUGCAGAGGAGGCAGGCUUCGGUGGCGCGAUAUCGCCAACGUCCUCAAACUCCAAUGCAUCCCACCACAUGAUGAUGCCUGAAGAGCCUUGGUUUUUUG [G69U C85A] ... -1.08

input: I am curious: what polymerase ribozyme fitness (log ratio) value has been reported for GACCAAUCUGGCCUCAGAGCUCGAGAACAUCUUCGGAUGCAGAGGAGGCAGGCUUCGGUGGCGAGAUAGCGCCAACGUCCUCAACCUCCAAUGCAUCCCACCACAUGAUGAUGCCUGAAGAGCCUUGGUUUUUUG [C11G C64A] ?
output: -5.88

input: Here is the next variant: GACCAACCUGCCCUCAGAGCUCGAGAACAUCUUCGGAUGCAGAGGAGGCAGGCUUCGGUGGCGCGAUAGCACCAACGUCCUCAACCUCCAAUGCAUCCCACCACAUGAUGAUGCCUGAAGAGCCUUUGUUUUGUG [U7C G71A G127U U133G]
output: -1.83

input: Here is the next variant: GACCAAUCUGCCCUCAGAGCUCGAGAACAUCCUCGGAUGCAGAGGAGGAAGGCUUCGGUGGCGCGAUAGCGCCAACGUCCUCAACCUCCAAUGCAUCCCACCACAUGAUGAUGCCUGAAGAGCCUUGGUUUUUUG [U32C C49A]
output: -0.089

input: Here is the next variant: GACCAAGCUGCCCUCAGAGCUCGAGAACAUCUUCGGAUGCAAAGGAGGCAGGCUUCGGUGGCGCGAUAGCGCCAACGUCCACAACCUCCAAUGCAUCCCACCACAUGAAGAUGCCUGAAGAGCCUUGGUCUUUUG [U7G G42A U81A U109A U130C]
output: -5.79

input: Here is the next variant: GACCAAUCUGCCCUCAGAGCUCGAGAACAUCUUCGGAUGAAGAGGAGGCAGGCUUCGGUGGCGCGAUAGCGCCAACAUCCUCAUCCUCCAAUGUAUCCCACCACAAGAUGAUGCCUGAAGAGCCUUGGUUUUUUG [C40A G77A A84U C94U U106A]
output: -2.81

input: Here is the next variant: GACCAAUCUGCCCUCAAAGCUCGAGAACAUCUUCGGAUGCAGAGGAGGCAGGCUUCGGUGGCGCGAUAGCGCCAACGUCCUCAACCUCCAAUGCAUCCCACCACAUGAUGAUGCCUGAAGAGCUUUGGUUUUUUG [G17A C124U]
output: -1.79

input: Here is the next variant: GACCAAUCUGCCCUCAGAGCUCGAGAACAUCGUCGGAUGCAGGGGAGGCAGGCUUCGGUGGCGCGAUAGCGCUAACGUCCUCAACCUCCAAUGCAUCCCACCACUUGAUGAUGCCUGAACAGCCUUGGUUUUUUG [U32G A43G C73U A105U G120C]
output: -7.51

input: Here is the next variant: GACCAAUCUGCCCUCAGAGUUCGAGAACAUCUUCGGAUGCAGAGGAGGCAGGCUUCGGUGGCGCGAUAGCGCCAACGUCCUCAACCUCCAAUGCAUCCCACCACAUGAUGAUGCCUGAACAGCCUUGGUUUUUUG [C20U G120C]
output: -0.868

input: Here is the next variant: GACCAAUCUGUCCUCAGAGCUCGAGAACAUCUUCGGAUGCAGAGGAGGCAGGCUUCGGUGGCGCGAUAGCGCCAACGUCCUCAACCUCCAAUGCAUCCCAACACAUGAUGAUGCCUGAAGAGCCUUGGUUUUUUG [C11U C101A]
output: -1.8

input: Here is the next variant: GACCAAUCUGCCCUCAGAGCUCGUGAACAUCUUCGGAUGCAGAGGAGGCAGGCUUAGGUAGCGCGAUAGCGCCAACGUCCUCAACCUCCAAUGCAUCCCACCACAUGAUGAUGCCUGAAGAGUCAUGGUUUUUUG [A24U C56A G60A C123U U125A]
output: -5.92

input: Here is the next variant: GACCAAUCUGCCCUCAGAGCUCGAGAACAUCUUCGGAUGCAGGGGAGGCAGGCUUCGGUGCCGCGAUAGCGCCAACGUCCUCAACCUCCAAUGCAUCCCACCACAUGAUGAUGCCUGAAGAGCCUUGGUUUUUUG [A43G G61C]
output: -4.3

input: Here is the next variant: GACCAAUCUGCCCUCAGUGCUCGAGAACAUCUUCGGAUGCAGAGGAGGCAGGCUUCGGUGGCGCGAUAGCGCUAACGUCCUCAACCUCCAAUGCAUCCCAUCACAUGAUGAUGCCUGAAAAGCCUUGGUUUUUUG [A18U C73U C101U G120A]
output: -2.78

input: Here is the next variant: GACCAAUCUGCCCUCAGAGCUCGAGAACAUCUUCGGAUGCAGAGGAGGCAGGCUACGGUGGCGCGAUAGCGCCAACGUCCUCAACCUCCAAUGCAUCCCACCACAUGAUGAUGCCUGAAGAGCCUUGGUUUUUUG [U55A]
output: -0.12

input: Here is the next variant: GACCAAGCUGCCCUCAGAGCUCGAGAACAUCUUCGGAUGCAGAUGAGGCAGCCUUCGGUGGCGCGAUAGCGCCAACGUCCUGAACCUCCAAUGCAUCCCACCACAUGAUGAUACCUGAAGAGCUUUGGUUUUUUG [U7G G44U G52C C82G G113A C124U]
output: -3

input: Here is the next variant: GACCAAUCUGCCCUCAGAGCUCGACAACAUCUUCGGAUGCAGAGGAGGCAGGCUUCGGUGGCGCGAUAUCGCCAACGUCCUCAACCUCCAAUGCAUCCCACCACAUGAUGAUGCCUGAAGAGCCUUGGUUUUUUG [G25C G69U]
output: -4.39

input: Here is the next variant: GACCAAUCUGCCCUCAGAGCUCGAGAACAUCUUCGGAUGCAGAGGAGGCAGGCUUCGGUGGCGCGAUAGCACCAACGUCCUCAACCUCCAAUGCAACCCACCACAUGAUGAUGCCUGAAGAGCCUUGGUUUUUUG [G71A U96A]
output: -2.13

input: Here is the next variant: GACCAAUCUGCCCUCAGAGCUCGAGAACAUCUUCGGAUGCAGAGAAGGCCGGCUUCGGUGGCACGAUAGCGCCAACGUCCUGAACCUCCAAUGCAUCCCACCACAUGAUGAUGCCUCAAGAGCCUUGGUUUUUUG [G45A A50C G63A C82G G117C]
output: -6.01
